Tested on: THP-1
Experiment: Cytotoxicity against human THP1 cells assessed as growth inhibition at 100 ug/mL after 72 hrs by MTT assay relative to control
Format: functional
Details: THP-1, 72 h, read-out: GI
Each entry below carries its recorded inhibition of growth at 100 µg/mL.

Smiles Code	Unit Annotation	inhibition of growth at 100 µg/mL
CC(=O)O[C@H]1C(=O)[C@@]2(C)[C@H]([C@H](OC(=O)c3ccccc3)[C@]3(O)C[C@H](OC(=O)[C@H](O)[C@@H](NC(=O)c4ccccc4)c4ccccc4)C(C)=C1C3(C)C)[C@]1(OC(C)=O)CO[C@@H]1C[C@@H]2O	%	82.5
C[C@@H]1CC[C@H]2C(C)(C)CCC[C@]2(C)[C@@]12CC[C@]1(CO[C@H](O)C1)O2	%	21.7
C=C[C@](C)(O)CC[C@@H]1[C@@]2(C)CCCC(C)(C)[C@H]2CC[C@@]1(C)O	%	96.4
C[C@@H]1CC[C@H]2C(C)(C)CCC[C@]2(C)[C@@]1(O)CC/C(=C/CO)CO	%	9.07
